# Tested on: RPMI-8226 leukemia
# Assay details: NCI-60 one-dose screen, 48 h (100 = growth as untreated, 0 = no growth, -100 = all killed)
# Experimental setup: 10 µM
About 83,000 compounds went through this panel and 20% of them were active in at least one assay; those are over-represented in the sample as a whole.
This section presents molecules with their documented growth values.
Endpoint label: growth (%)

[[record]]
molecule = "CC(=O)OC/C=C(/C)C[P+](c1ccccc1)(c1ccccc1)c1ccccc1"
number = 0.0221

[[record]]
molecule = "O=C(/C=C/C=C/c1c(C2CC2)nc2ccccc2c1-c1ccc(F)cc1)c1cccs1"
number = -26.6

[[record]]
molecule = "CC(CN(C)C)Oc1ccc(OC(C)CN(C)C)c2c1C(=O)c1ccccc1C2=O (stereo unspecified)"
number = 41.4

[[record]]
molecule = "Cc1ccc(-c2c3c(N)nc(-c4cccnc4)nc3nc3c2c(C)nn3-c2ccccc2)cc1"
number = 81.2

[[record]]
molecule = "O=C(O)c1cn(C2CC2)c2cc(N3CCN(C(=O)c4cc(-c5ccc(Cl)cc5)nc5ccccc45)CC3)c(F)cc2c1=O"
number = 81.8

[[record]]
molecule = "O=C(N/N=C/c1c(Cl)cccc1Cl)c1ccccc1Nc1cccc(C(F)(F)F)c1"
number = 82.5

